methodNotes: HPLC quantitation of serum and liver compound and metabolite concentration
Type: in vivo, rabbit (New Zealand White, female)
experimentalParameters: rabbit, po; liver; diet I 0.15%*, II and III 0.40%; read-out: Liver Parent: parent compound concentration
measuredMetric: concentration at 1680 h (ng/g)
Write the answer as a number in ng/g, unit excluded.

Recorded concentration at 1680 h, per entry:
# compound, concentration at 1680 h [ng/g]
measured = [
    ("COc1ccccc1[Si](C)(C)COc1cc(C(C)(C)C)c(O)c(C(C)(C)C)c1 [Compound II]", 80900),
    ("CC(C)(C)c1cc(SC[Si](C)(C)c2ccccc2)cc(C(C)(C)C)c1O [Compound III, reference compound]", 323000),
]

// below: concentration at 1680 h requested for another compound
Inquiry: Note concentration at 1680 h for the compound shown: COc1ccc([Si](C)(C)COc2cc(C(C)(C)C)c(O)c(C(C)(C)C)c2)cc1 [Compound I]
Reply text: 44900
